Test system: UACC-62 melanoma
Test: NCI tumour cell line growth inhibition, 48 h
parameter measured: TGI (µM)
Reply with just the number (in µM).

{"molecule": "Cc1cccc2nc3cccc(C(=O)NCCNCCNCCNC(=O)c4cccc5nc6cccc(C)c6nc45)c3nc12", "measured target": "UACC-62 melanoma", "measurement units": "µM", "TGI": 2.01}

# next molecule below
Bench note: what TGI did CC(=O)Oc1c2c(c(CC=C(C)C)c3c1C(=O)C1=C[C@@H]4CC5C(C)(C)OC(C/C=C(/C)C(=O)O)(C4=O)[C@@]15O3)OC(C)(CCC=C(C)C)C=C2 (stereo not given in full) show?
0.86

Sourced from PubChem BioAssay (NCI)
